EXPERIMENT_DESCRIPTION: Half life in rat
Type: ADME, organism-based
MEASUREMENT_PARAMETERS: in vivo
VALUE_TYPE: half-life (h)
Only the number, expressed in h, is required.

Just so you know, measured half-life for CCOc1cncc(OCC)c1CN came out at 2

---

EXPERIMENT_DESCRIPTION: Oral bioavailability in rat
Format: ADME, organism-based
MEASUREMENT_PARAMETERS: in vivo
VALUE_TYPE: bioavailability (%)
State the answer as a number, implicitly in %.

// bioavailability value for CCOc1cncc(OCC)c1CN : 51.5

---

TEST_TARGET: Amine oxidase [flavin-containing] B (Rattus norvegicus)
Sequence (P19643 whole entry): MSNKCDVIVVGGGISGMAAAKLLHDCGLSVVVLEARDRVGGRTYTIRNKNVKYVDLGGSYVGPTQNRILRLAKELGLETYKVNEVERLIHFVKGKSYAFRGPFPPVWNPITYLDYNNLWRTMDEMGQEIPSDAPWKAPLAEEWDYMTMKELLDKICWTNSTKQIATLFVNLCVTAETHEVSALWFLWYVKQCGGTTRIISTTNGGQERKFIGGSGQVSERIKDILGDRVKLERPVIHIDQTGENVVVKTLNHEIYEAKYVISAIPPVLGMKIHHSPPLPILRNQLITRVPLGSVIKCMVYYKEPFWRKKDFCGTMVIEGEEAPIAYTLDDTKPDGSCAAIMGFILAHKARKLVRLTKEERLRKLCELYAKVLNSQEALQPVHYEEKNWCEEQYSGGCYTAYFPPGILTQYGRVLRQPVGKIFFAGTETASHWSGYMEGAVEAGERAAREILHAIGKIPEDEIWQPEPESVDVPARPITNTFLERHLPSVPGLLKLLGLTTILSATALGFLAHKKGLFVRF
EXPERIMENT_DESCRIPTION: Inhibition of rat liver MAO-B using 2-phenyl[1-14C]-ethylamine/[7-14C]-benzylamine as substrate preincubated for 30 mins followed by substrate addition
pIC50: −log10 of the molar value.
VALUE_TYPE: pIC50

Past entries and their recorded results:
STRUCTURE_SMILES_STRING	TEST_TARGET	pIC50
CCCCc1cccc(CCCC)c1CN.Cl	Amine oxidase [flavin-containing] B (Rattus norvegicus)	< 3.00
CCc1cccc(CC)c1CN.Cl	Amine oxidase [flavin-containing] B (Rattus norvegicus)	< 3.00
NCc1ccccc1CO	Amine oxidase [flavin-containing] B (Rattus norvegicus)	< 3.00

Okay, now this compound:
Reported pIC50 of CCCOc1cccc(OCCC)c1CN.Cl : < 3.00

Just for reference, ChEMBL document CHEMBL3112493 is where these values come from.
